These measurements were taken from patent US9096548B2.

# STUDY SYSTEM: ENaC (Epithelial Sodium Channel) (Mus musculus, UniProt Q61180+Q9WU38+Q9WU39)
# Construct: Mouse kidney M−1 cells were cultivated in DMEM; endogenous in cells; host or cells: Mouse kidney M-1 cells, cultivated with dexamethasone on transwell filters
# Sequence (Q61180 whole entry): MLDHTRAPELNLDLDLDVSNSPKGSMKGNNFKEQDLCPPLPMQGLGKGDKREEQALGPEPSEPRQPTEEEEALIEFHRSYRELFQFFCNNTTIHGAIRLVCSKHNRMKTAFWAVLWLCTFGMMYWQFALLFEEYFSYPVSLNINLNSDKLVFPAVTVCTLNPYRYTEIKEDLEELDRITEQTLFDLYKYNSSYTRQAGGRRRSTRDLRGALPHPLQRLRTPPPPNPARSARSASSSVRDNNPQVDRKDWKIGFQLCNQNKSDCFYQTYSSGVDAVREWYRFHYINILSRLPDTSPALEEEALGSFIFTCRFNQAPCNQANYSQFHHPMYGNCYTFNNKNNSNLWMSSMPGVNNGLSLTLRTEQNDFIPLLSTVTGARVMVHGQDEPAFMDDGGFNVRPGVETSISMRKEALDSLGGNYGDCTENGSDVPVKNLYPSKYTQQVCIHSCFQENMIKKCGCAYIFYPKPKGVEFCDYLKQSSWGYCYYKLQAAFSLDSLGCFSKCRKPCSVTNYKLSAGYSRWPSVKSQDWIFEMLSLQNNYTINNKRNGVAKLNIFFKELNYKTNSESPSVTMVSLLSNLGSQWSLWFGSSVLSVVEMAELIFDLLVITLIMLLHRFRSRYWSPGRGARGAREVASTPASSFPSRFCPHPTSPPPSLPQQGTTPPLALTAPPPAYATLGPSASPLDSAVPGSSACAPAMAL
# Sequence (Q9WU38 whole entry): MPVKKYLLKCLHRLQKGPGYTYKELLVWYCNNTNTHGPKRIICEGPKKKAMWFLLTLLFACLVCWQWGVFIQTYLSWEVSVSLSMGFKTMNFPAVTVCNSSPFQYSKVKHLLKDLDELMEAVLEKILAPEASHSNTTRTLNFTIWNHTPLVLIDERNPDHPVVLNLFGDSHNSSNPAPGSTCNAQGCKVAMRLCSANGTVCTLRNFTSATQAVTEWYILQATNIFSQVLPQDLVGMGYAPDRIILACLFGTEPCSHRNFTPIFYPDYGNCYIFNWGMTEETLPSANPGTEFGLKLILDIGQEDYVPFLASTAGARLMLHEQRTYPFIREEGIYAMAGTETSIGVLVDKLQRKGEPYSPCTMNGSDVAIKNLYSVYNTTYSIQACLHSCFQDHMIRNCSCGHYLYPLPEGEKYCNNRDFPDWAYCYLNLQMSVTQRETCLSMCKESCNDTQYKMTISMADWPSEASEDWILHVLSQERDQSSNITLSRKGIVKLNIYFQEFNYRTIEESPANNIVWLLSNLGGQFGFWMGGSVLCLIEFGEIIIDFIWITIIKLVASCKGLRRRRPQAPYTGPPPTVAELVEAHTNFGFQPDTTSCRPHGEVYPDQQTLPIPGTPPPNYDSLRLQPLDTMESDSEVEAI
# Sequence (Q9WU39 whole entry): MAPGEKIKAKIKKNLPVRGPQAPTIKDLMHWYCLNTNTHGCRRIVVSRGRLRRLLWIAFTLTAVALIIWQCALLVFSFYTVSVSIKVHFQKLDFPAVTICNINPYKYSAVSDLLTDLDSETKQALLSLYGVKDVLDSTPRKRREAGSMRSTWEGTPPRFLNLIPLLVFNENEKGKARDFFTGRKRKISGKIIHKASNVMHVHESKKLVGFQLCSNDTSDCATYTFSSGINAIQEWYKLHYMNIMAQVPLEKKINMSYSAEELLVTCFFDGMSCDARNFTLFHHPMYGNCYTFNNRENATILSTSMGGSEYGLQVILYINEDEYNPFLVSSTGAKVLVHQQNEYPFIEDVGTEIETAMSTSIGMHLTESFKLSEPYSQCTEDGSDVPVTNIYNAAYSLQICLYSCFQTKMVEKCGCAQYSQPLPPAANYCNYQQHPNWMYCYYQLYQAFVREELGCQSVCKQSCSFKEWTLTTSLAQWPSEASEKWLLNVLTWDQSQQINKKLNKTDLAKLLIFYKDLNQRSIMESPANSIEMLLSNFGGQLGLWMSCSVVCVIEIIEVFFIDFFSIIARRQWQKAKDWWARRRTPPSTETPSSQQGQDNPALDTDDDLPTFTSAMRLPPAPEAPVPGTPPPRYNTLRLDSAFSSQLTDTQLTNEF
# ASSAY PROCEDURE: Ussing Chamber assay (short circuit current, amiloride sensitive I_SC)
# Format: cell-based
# EXPERIMENTAL CONDITIONS: Ussing chamber, mouse kidney M-1 cells, short circuit current, compound added to the apical solution; read-out: IC50
MEASUREMENT TYPE: IC50 (nM)

>>> meas_value("Nc1nc(N)c(C(=O)N[C@H]2CCC[N+](CCCc3ccc(OCC(=O)NCCn4ccnc4)cc3)(CCCc3ccc(OCC(=O)NCCn4ccnc4)cc3)C2)nc1Cl")
9
>>> meas_value("CN(Cc1ccncc1)C(=O)COc1ccc(CCC[N+]2(CCCc3ccc(OCC(=O)N(C)Cc4ccncc4)cc3)CCC[C@H](NC(=O)c3nc(Cl)c(N)nc3N)C2)cc1")
21
>>> meas_value("CN1CCC(NC(=O)COc2ccc(CCC[N+]3(CCCc4ccc(OCC(=O)NC5CCN(C)C5=O)cc4)CCC[C@H](NC(=O)c4nc(Cl)c(N)nc4N)C3)cc2)C1=O (stereo partly shown)")
83
>>> meas_value("Nc1nc(N)c(C(=O)N[C@H]2CCC[N+](CCCc3ccc(OCC(=O)OCC4COCCN4)cc3)(CCCc3ccc(OCC(=O)OCC4COCCN4)cc3)C2)nc1Cl (stereo partly shown)")
112
>>> meas_value("Nc1nc(N)c(C(=O)N[C@H]2CCC[N+](CCCc3ccc(OCC(=O)NCC(O)CO)cc3)(CCCc3ccc(OCC(=O)NCC(O)CO)cc3)C2)nc1Cl (stereo partly shown)")
30
>>> meas_value("Nc1nc(N)c(C(=O)N[C@H]2CCC[N+](CCCc3ccc(OCC(=O)NCCc4ccncc4)cc3)(CCCc3ccc(OCC(=O)NCCc4ccncc4)cc3)C2)nc1Cl")
4
>>> meas_value("Nc1nc(N)c(C(=O)N[C@H]2CCC[N+](CCCc3ccc(OCC(=O)NCCOCCO)cc3)(CCCc3ccc(OCC(=O)NCCOCCO)cc3)C2)nc1Cl")
25
>>> meas_value("CN(CCC#N)C(=O)COc1ccc(CCC[N+]2(CCCc3ccc(OCC(=O)N(C)CCC#N)cc3)CCC[C@H](NC(=O)c3nc(Cl)c(N)nc3N)C2)cc1")
105
>>> meas_value("C[N+](C)(C)CCNC(=O)COc1ccc(CCC[N+]2(CCCc3ccc(OCC(=O)NCC[N+](C)(C)C)cc3)CCCC(NC(=O)c3nc(Cl)c(N)nc3N)C2)cc1 (stereo not shown)")
68
>>> meas_value("CN(Cc1ccccn1)C(=O)COc1ccc(CCC[N+]2(CCCc3ccc(OCC(=O)N(C)Cc4ccccn4)cc3)CCC[C@H](NC(=O)c3nc(Cl)c(N)nc3N)C2)cc1")
18
>>> meas_value("COC(=O)CCNC(=O)c1ccc(CCC[N+]2(CCCc3ccc(OC)cc3)CCCC(NC(=O)c3nc(Cl)c(N)nc3N)C2)cc1 (stereo not shown)")
24
>>> meas_value("COc1ccc(CCC[N+]2(CCCc3ccccc3)CCCC(NC(=O)c3nc(Cl)c(N)nc3N)C2)cc1 (stereo not shown)")
6
>>> meas_value("CN(C)C(=O)CNC(=O)COc1ccc(CCC[N+]2(CCCc3ccc(OCC(=O)NCC(=O)N(C)C)cc3)CCC[C@H](NC(=O)c3nc(Cl)c(N)nc3N)C2)cc1")
41
